Molecular target: recombinant human mPGES-1 (Homo sapiens)
Construct: made in house; host or cells: Rosetta E. coli (membrane/microsome fraction)
Sequence (O14684 whole entry): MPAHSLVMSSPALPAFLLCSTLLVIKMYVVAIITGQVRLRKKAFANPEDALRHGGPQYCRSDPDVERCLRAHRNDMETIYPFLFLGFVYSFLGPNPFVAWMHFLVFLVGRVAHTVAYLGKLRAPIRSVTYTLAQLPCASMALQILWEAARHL
Experiment: Assay B: mPGES-1 enzyme assay (modified)
Type: biochemical
Conditions: biological assay B (modified); PGH2 final conc. 2 μM; read-out: mPGES-1 inhibitory effect IC50
Endpoint Name: log10(IC50) (log10 of the value in nM)
All values: log10 IC50 [nM].

Would you kindly share the measured log10(IC50) for CC(C)(C)C(=O)NCc1ccc(Cl)c(Nc2nc3cc(Cl)c(N4CCCC(C(F)(F)F)C4)cc3[nH]2)c1Cl (stereo not drawn) [Example 52] ?
0.34

Would you kindly share the measured log10(IC50) for CC(C)(C)C(=O)NCc1ccc(Cl)c(Nc2nc3cc(C(F)(F)F)c(N4CCC(C(F)(F)F)CC4)cc3[nH]2)c1Cl [Example 61] ?
0.70

Would you kindly share the measured log10(IC50) for CC(C)(C)C(=O)NCc1ccc(Cl)c(Nc2nc3cc(Cl)c(N4CCC(C(F)(F)F)CC4)cc3[nH]2)c1Cl [Example 40] ?
0.76

Would you kindly share the measured log10(IC50) for Cn1c(Nc2c(Cl)ccc(CNC(=O)OC(C)(C)C)c2Cl)nc2cc(Cl)c(N3CCCC(C(F)(F)F)C3)cc21 (stereo not drawn) [Example 51] ?
1.36

Would you kindly share the measured log10(IC50) for CN(CC(C)(C)O)c1cc2c(cc1Cl)nc(Nc1c(Cl)ccc(CNC(=O)C(C)(C)C)c1F)n2C [Example 37] ?
0.89

Would you kindly share the measured log10(IC50) for Cn1c(Nc2cc(CNC(=O)C(C)(C)C)ccc2Cl)nc2cc(N3CCC(C(F)(F)F)CC3)ccc21 [Example 12] ?
2.24

Would you kindly share the measured log10(IC50) for Cn1c(Nc2cc(CNC(=O)C(C)(C)C(F)(F)F)ccc2Cl)nc2cc(Cl)c(N3CCC(c4ccccc4)CC3)cc21 [Example 97] ?
0.49

Would you kindly share the measured log10(IC50) for Cn1c(Nc2cc(CNC(=O)C(C)(C)C(F)(F)F)ccc2Cl)nc2cc(Cl)c(N3CCN(c4ccc(C(F)(F)F)cc4)CC3)cc21 [Example 98] ?
0.81

Would you kindly share the measured log10(IC50) for Cn1c(Nc2c(Cl)ccc(CNC(=O)C(C)(C)C)c2F)nc2cc(Cl)c(N3CCC(F)CC3)cc21 [Example 33] ?
0.48

Would you kindly share the measured log10(IC50) for CC(C)(C)C(=O)NCc1ccc(Cl)c(Nc2nc3cc(C#N)c(N4CCC(C(F)(F)F)CC4)cc3[nH]2)c1Cl [Example 131] ?
0.70

Would you kindly share the measured log10(IC50) for Cn1c(Nc2c(F)ccc(CNC(=O)C(C)(C)C)c2F)nc2cc(Cl)c(N3CCC(C(F)(F)F)CC3)cc21 [Example 70] ?
0.81

Would you kindly share the measured log10(IC50) for Cn1c(Nc2c(Cl)ccc(CNC(=O)C(C)(C)C)c2Cl)nc2cc(Cl)c(N3CCC(C(F)(F)F)C3)cc21 (stereo not drawn) [Example 59] ?
0.30

Would you kindly share the measured log10(IC50) for Cn1c(Nc2cc(CNC(=O)C3(C(F)(F)F)CC3)ccc2Cl)nc2cc(Cl)c(N3CCN(CC(F)(F)F)CC3)cc21 [Example 92] ?
1.59

Would you kindly share the measured log10(IC50) for CC(C)(C)C(=O)NCc1ccc(Cl)c(Nc2nc3cc(Cl)c(N4CCC(F)CC4)cc3[nH]2)c1F [Example 48] ?
0.95

Would you kindly share the measured log10(IC50) for Cn1c(Nc2c(Cl)ccc(CNC(=O)C(C)(C)C)c2Cl)nc2cc(Cl)c(N3CCCC(C(F)(F)F)C3)cc21 (stereo not drawn) [Example 53] ?
0.54
